Origin of measurements: patent USRE39591E1

Test system: up to 32 different microorganisms
Test: in vitro antibacterial activity (MIC), agar dilution on Brain Heart Infusion (BHI) agar with Steers replicator
Assay type: cell-based
Conditions: organism code VV; unit assumed
As shown below, each of these molecules has a reported MIC value.

molecule	MIC
CCC1OC(=O)C(C)C(=O)C(C)C(OC2OC(C)CC(N(C)C)C2O)C(C)(OCC=Cc2cnc3ccc(O)cc3c2)CC(C)C(=O)C(C)C2NC(=O)OC12C (stereo not drawn) [Example 208, R is —CH2CH═CH-(6-hydroxy-3-quinolyl)]	0.2 µg/mL
CCC1OC(=O)C(C)C(=O)C(C)C(OC2OC(C)CC(N(C)C)C2O)C(C)(OCC=Cc2ccc3cc(OC)ccc3c2)CC(C)C(=O)C(C)C2NC(=O)OC12C (stereo not drawn)	0.2 µg/mL

Now turn to the next molecule.
Query: Give the measured MIC of CCC1OC(=O)C(C)C(=O)C(C)C(OC2OC(C)CC(N(C)C)C2O)C(C)(OCC=Cc2cnc3ccc(C(N)=O)cc3c2)CC(C)C(=O)C(C)C2NC(=O)OC12C (stereo not drawn) .
Reply: 0.78 µg/mL
